biological target: T1, FX activation peptide 12-mer DLLDFNQTQPER (human); experiment: peptide ELISA
T1 peptide: DLLDFNQTQPER-biotin
Ends that are not written are not given here.
EXPERIMENTAL_ENDPOINT: ELISA signal relative to background
Could you keep your reply to the number by itself?

BINDER	ELISA signal relative to background
Nb 701C06 (VHH, monovalent Nanobody; not shown: C-terminal FLAG3 and HIS6 tag) VHH: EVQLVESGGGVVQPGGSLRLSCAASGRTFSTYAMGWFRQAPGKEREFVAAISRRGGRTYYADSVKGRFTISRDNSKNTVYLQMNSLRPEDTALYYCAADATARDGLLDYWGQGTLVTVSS	1.13

Just so you know, measured ELISA signal relative to background for Nb 730C03 (VHH, monovalent Nanobody; also called Nb 730003; not shown: C-terminal FLAG3 and HIS6 tag) VHH: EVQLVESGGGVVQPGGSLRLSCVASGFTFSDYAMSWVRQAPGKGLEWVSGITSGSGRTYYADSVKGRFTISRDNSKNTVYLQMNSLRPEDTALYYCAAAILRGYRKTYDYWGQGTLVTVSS came out at 1.18

Reported ELISA signal relative to background of Nb 729A04 (VHH, monovalent Nanobody; not shown: C-terminal FLAG3 and HIS6 tag) VHH: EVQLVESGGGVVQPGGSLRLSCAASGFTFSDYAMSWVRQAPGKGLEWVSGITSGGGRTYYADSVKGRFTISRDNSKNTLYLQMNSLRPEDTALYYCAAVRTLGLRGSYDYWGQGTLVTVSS : 1.12

Short answer for Nb 729C08 (VHH, monovalent Nanobody; also called Nb 729008; not shown: C-terminal FLAG3 and HIS6 tag) VHH: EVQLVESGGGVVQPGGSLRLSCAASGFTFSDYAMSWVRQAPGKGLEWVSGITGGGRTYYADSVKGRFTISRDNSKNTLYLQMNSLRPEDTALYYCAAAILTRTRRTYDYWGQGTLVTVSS : ELISA signal relative to background was 1.22
